target: unphosphorylated VEGF-R2Δ50 (FLVK) (Homo sapiens, UniProt P35968, DEL940-989/E990V); assay: VEGF-R2 coupled spectrophotometric assay, unphosphorylated VEGF-R2Δ50 (FLVK); details: read-out: FLVK % inhibition
Sequence (P35968 with tags, fused parts or gaps DEL940-989/E990V limits assumed): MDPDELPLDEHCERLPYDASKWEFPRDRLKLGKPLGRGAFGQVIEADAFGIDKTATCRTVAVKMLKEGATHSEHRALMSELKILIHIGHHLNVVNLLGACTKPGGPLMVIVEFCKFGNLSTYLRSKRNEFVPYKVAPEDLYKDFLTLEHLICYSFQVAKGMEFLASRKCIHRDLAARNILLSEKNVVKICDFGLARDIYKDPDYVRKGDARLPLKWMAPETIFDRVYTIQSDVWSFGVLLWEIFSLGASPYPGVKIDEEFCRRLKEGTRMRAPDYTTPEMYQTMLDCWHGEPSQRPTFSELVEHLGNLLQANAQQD
# inhibition at 0.05 µM per record follows
Response body: numeric value in %, unit text excluded.

For record Cc1nc(/C=C/c2n[nH]c3cc(C(=O)c4cccc(NC(=O)c5ccccc5)c4)ccc23)cs1 [Example 42(c)] the listed inhibition at 0.05 µM is 95

// field: inhibition at 0.05 µM; key: Cc1cnccc1C(=O)Nc1cccc(C(=O)c2ccc3c(/C=C/c4ccccn4)n[nH]c3c2)c1 [Example 41(j)] ; value = 98

The molecule listed as O=C(Nc1cccc(C(=O)c2ccc3c(/C=N/n4cccc4)n[nH]c3c2)c1)c1ccccc1 [Example 45(b)] shows inhibition at 0.05 µM equal to 99

Next up:
Record CCn1nc(C)cc1C(=O)Nc1cc(C(=O)c2ccc3c(/C=C/c4ccccn4)n[nH]c3c2)c(C)cc1C [Example 41(ll)] , field inhibition at 0.05 µM: 95

###

// reported Cmax per item
experiment: Determination of inhibitor concentration in mouse plasma after intraperitoneal and oral dosing; assay type: in vivo; conditions: female, PO, 25 mg/kg, vehicle PEG400:H2O pH 2.3 30:70, read-out: Cmax

Please review the following examples before continuing.
O=C(NOCC1CC1)c1ccccc1Sc1ccc2c(/C=C/c3ccccn3)n[nH]c2c1 [Example 35(s)] has a reported Cmax of 3370 ng/mL

Summary for this compound, `CCn1nc(C)cc1C(=O)Nc1cccc(Oc2ccc3c(/C=C/c4cn(C)c(C)n4)n[nH]c3c2)c1` : Cmax is > 50000 ng/mL

Note to self: Cmax recorded for `C#CCNC(=O)c1ccccc1Nc1ccc2c(/C=C/c3ccccn3)n[nH]c2c1` was > 5000 ng/mL

Lab note: next compound to report on.
The recorded Cmax for `CNC(=O)c1ccccc1Nc1ccc2c(/C=C/c3ccccn3)n[nH]c2c1` is > 4000 ng/mL

###

experiment: Determination of inhibitor concentration in mouse plasma after intraperitoneal and oral dosing; type: in vivo; conditions: female, PO, 8 mg/kg, vehicle 0.5% CMC
MEASURE: AUC(0-t) (ng·h/mL)
Respond numerically; units are ng·h/mL and should not be typed.

AUC(0-t) in this record for `CCn1nc(C)cc1C(=O)Nc1cccc(C(=O)c2ccc3c(/C=C/c4ccccn4)n[nH]c3c2)c1.Cl` : 7710

###

test: Determination of inhibitor concentration in mouse plasma after intraperitoneal and oral dosing; type: in vivo; conditions: PO, 25 mg/kg, vehicle PEG400:H2O pH 2.3 30:70
Please mark 1 if the recorded plasma half-life (T1/2) is equal to or greater than 2 h, and -1 if it falls below.

Quick check, plasma half-life (T1/2) >= 2 h? `C#CCNC(=O)c1ccccc1Nc1ccc2c(/C=C/c3ccccn3)n[nH]c2c1`
1

Does the reported plasma half-life (T1/2) for Cn1ccnc1C(=O)Nc1cccc(Oc2ccc3c(/C=C/c4ccccn4)n[nH]c3c2)c1 [Example 31(e)] fall at or above the 2 h mark?
1

Quick check, plasma half-life (T1/2) >= 2 h? `CNC(=O)c1ccccc1Nc1ccc2c(/C=C/c3ccccn3)n[nH]c2c1`
-1

Quick check, plasma half-life (T1/2) >= 2 h? O=C(NOCC1CC1)c1ccccc1Sc1ccc2c(/C=C/c3ccccn3)n[nH]c2c1 [Example 35(s)]
1

plasma half-life (T1/2) >= 2 h for `CCc1cc(C(=O)Nc2cccc(C(=O)c3ccc4c(/C=C/c5ccccn5)n[nH]c4c3)c2)n(C)n1` ?
1

Further cases:
Hi team, for `Cc1cc(C(=O)Nc2cc(C(=O)c3ccc4c(/C=C/c5ccccn5)n[nH]c4c3)ccc2C)n(C)n1` , is the recorded plasma half-life (T1/2) at or above 2 h?
1

// inclusive: plasma half-life (T1/2) at least 2 h? input: `CCn1nc(C)cc1C(=O)Nc1cccc(Oc2ccc3c(/C=C/c4ccccn4)n[nH]c3c2)c1`
-1

###

Measured pKi by item
target: CDK4/Cyclin D3 complex (Homo sapiens, UniProt P11802); experiment: CDK4/Cyclin D assay ([32P]ATP, Rb fragment)
Sequence (P11802 whole entry, the tested form may be a part): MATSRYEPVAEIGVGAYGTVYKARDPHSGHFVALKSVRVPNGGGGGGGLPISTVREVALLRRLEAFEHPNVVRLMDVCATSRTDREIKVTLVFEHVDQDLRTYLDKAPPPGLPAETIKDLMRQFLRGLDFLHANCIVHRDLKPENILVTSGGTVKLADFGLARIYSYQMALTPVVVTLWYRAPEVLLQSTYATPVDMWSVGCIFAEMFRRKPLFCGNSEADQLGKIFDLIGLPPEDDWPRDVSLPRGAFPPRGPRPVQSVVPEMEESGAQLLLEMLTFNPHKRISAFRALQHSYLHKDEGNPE
Sequence (P30281 whole entry partner, the tested form may be a part): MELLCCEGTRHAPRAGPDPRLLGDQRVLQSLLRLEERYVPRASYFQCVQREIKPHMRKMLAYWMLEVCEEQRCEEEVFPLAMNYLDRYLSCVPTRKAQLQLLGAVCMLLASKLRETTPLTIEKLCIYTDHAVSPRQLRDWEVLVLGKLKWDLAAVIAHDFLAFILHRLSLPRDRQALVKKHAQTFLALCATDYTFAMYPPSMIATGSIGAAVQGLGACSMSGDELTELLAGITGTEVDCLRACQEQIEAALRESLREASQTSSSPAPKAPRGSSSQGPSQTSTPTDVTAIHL
The scale used: pKi is minus the common logarithm of the concentration in molar units.

# pKi (compound: `Cc1cc(O)ccc1-c1ccc2c(-c3nc4ccccc4[nH]3)n[nH]c2c1` ) is 8.49

Recorded pKi (compound `COCCc1cc(O)ccc1-c1ccc2c(-c3nc4ccccc4[nH]3)n[nH]c2c1` ): 7.28

So for `Oc1cccc(Oc2ccc3c(/C=C/c4ccccc4)n[nH]c3c2)c1` , the logged pKi turned out to be 5.77

Record `COc1cc(-c2ccc3c(-c4ccc5ccccc5c4)n[nH]c3c2)ccc1O` , field pKi: 5.80

The compound identified as `COc1cc(O)ccc1-c1ccc2c(-c3nc4c(N5CCN(C)CC5)cccc4[nH]3)n[nH]c2c1` registered its pKi at 7.01

GET /value?item= `Fc1ccccc1/C=C/c1n[nH]c2cc(-c3ccncc3)ccc12` &field=pKi returns 5.66

# compound `COc1cc(-c2ccc3c(-c4cc(OC)c(OC)c(OC)c4)n[nH]c3c2)ccc1O` ; its pKi = 4.59

Entry `Cc1cc(O)c(Cl)cc1-c1ccc2c(-c3nc4ccccc4[nH]3)n[nH]c2c1` — recorded pKi = 8.82

###

assay: Determination of inhibitor concentration in mouse plasma after intraperitoneal and oral dosing; format: in vivo; conditions: female, PO, 25 mg/kg, vehicle 0.5% CMC, read-out: Cmin (7 hr conc.)
MEASURE: concentration at 7 h (µg/mL)
Respond numerically; units are µg/mL and should not be typed.

The compound listed as CCn1nc(C)cc1C(=O)Nc1cccc(C(=O)c2ccc3c(/C=C/c4ccccn4)n[nH]c3c2)c1.Cl [Example 59(a), Hydrochloride] shows concentration at 7 h equal to 1.21

// below: concentration at 7 h requested for another compound
response.value for CCn1nc(C)cc1C(=O)Nc1cccc(Oc2ccc3c(/C=C/c4ccccn4)n[nH]c3c2)c1.Cl [Example 59(e), Hydrochloride] (field: concentration at 7 h) = 2.14

###

biological target: human CHK1 (FL-CHK1) (Homo sapiens); construct: C-terminally His-tagged full-length human CHK1 (FL-CHK1); made in house; host or cells: baculovirus/insect cell system; experiment: CHK1 assay (coupled spectrophotometric, Syntide-2); format: biochemical; details: Table 4; compound at 20 μM
Sequence (O14757 whole entry): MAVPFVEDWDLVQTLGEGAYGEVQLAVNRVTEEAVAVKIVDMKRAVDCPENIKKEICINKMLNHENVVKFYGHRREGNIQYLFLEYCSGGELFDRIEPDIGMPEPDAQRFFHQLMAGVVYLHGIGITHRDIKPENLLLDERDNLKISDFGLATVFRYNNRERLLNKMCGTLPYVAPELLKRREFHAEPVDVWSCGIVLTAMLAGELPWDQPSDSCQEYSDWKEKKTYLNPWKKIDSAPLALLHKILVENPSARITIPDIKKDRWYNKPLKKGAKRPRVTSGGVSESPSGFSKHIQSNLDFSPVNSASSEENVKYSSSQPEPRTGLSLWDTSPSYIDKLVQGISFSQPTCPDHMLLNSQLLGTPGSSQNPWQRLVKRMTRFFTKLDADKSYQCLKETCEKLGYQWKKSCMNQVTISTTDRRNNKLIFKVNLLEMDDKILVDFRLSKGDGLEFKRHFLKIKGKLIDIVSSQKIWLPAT
MEASURE: CHK-1 @ 20 μM

These solved cases illustrate the format of a correct answer.
// sample COc1ccc(NC(=O)c2ccc3c(-c4nc5ccccc5[nH]4)n[nH]c3c2)cc1O [drawing 1257] , its CHK-1 @ 20 μM was 32.3

The measured CHK-1 @ 20 μM associated with COC(=O)c1cc(NC(=O)c2ccc3c(-c4nc5ccccc5[nH]4)n[nH]c3c2)ccc1O [drawing 1260] reads 31.6

CHK-1 @ 20 μM measured on COC(=O)c1ccc(NC(=O)c2ccc3c(-c4nc5ccccc5[nH]4)n[nH]c3c2)o1 [drawing 1258] = 42.9

New cases:
The molecule listed as C=CCC(NC(=O)c1ccc2c(-c3nc4ccccc4[nH]3)n[nH]c2c1)c1ccccn1 (stereo not shown) [drawing 1259] shows CHK-1 @ 20 μM equal to 24.1

###

experiment: Determination of inhibitor concentration in mouse plasma after intraperitoneal and oral dosing; assay type: in vivo; conditions: female, PO, 50 mg/kg, vehicle PEG400:H2O pH 2.3 30:70, read-out: Cmin (7 hr conc.)
Mark condition not met for concentration at 7 h values under 20 ng/mL, and condition met for everything at or above.

Examples with answers:
Confirm if concentration at 7 h reported for the compound O=C(c1cccc(NC(=O)C2C[C@H]2c2ccccc2)c1)c1ccc2c(/C=C/c3ccccn3)n[nH]c2c1 (stereo partly shown) [Example 41(l)] is 20 ng/mL or above.
condition not met

Hello, I need to know if O=C(Nc1ccccc1)c1ccccc1Sc1ccc2c(/C=C/c3ccccn3)n[nH]c2c1 [Example 33(c)] has measured concentration at 7 h not below 20 ng/mL. Thanks!
condition not met

Could you verify whether the entry Cc1ccc(CNC(=O)c2ccccc2Sc2ccc3c(/C=C/c4ccccn4)n[nH]c3c2)o1 [Example 35(h)] shows concentration at 7 h of no less than 20 ng/mL?
condition not met

More entries:
Does the compound O=C(Nc1cccc(Oc2ccc3c(/C=C/c4c[nH]cn4)n[nH]c3c2)c1)c1ccccc1 [Example 32(a)] have recorded concentration at 7 h that is 20 ng/mL or more?
condition met

Does the compound C=CCONC(=O)c1ccccc1Sc1ccc2c(/C=C/c3ccccn3)n[nH]c2c1 [Example 35(j)] have recorded concentration at 7 h that is 20 ng/mL or more?
condition not met

Determine whether this compound has concentration at 7 h no lower than 20 ng/mL: Cn1nc(C(C)(C)C)cc1C(=O)Nc1cccc(C(=O)c2ccc3c(/C=C/c4ccccn4)n[nH]c3c2)c1 [Example 41(n)]
condition met

Confirm if concentration at 7 h reported for the compound CC(C)ONC(=O)c1ccccc1Sc1ccc2c(/C=C/c3ccccn3)n[nH]c2c1 [Example 35(k)] is 20 ng/mL or above.
condition met

State whether the measured concentration at 7 h reaches 20 ng/mL, counting equality as reaching it, for CCn1nc(C)cc1C(=O)Nc1cc(C(=O)c2ccc3c(/C=C/c4ccccn4)n[nH]c3c2)ccc1C [Example 41(ee)]
condition met

Has C#CCNC(=O)c1ccccc1Sc1ccc2c(/C=C/c3ccccn3)n[nH]c2c1 [Example 35(cc)] a recorded concentration at 7 h greater than or equal to 20 ng/mL?
condition not met

Check this compound for concentration at 7 h at or above 20 ng/mL: COc1cccc(C(=O)Nc2cccc(C(=O)c3ccc4c(/C=C/c5ccccn5)n[nH]c4c3)c2)c1 [Example 41(bb)]
condition met

Hi team, for O=C(NCC(F)(F)F)c1ccccc1Sc1ccc2c(/C=C/c3ccccn3)n[nH]c2c1 [Example 33(f)] , is the recorded concentration at 7 h at or above 20 ng/mL?
condition not met

Could you please find out whether O=C(c1cccc(NC(=O)c2ccc(Cl)s2)c1)c1ccc2c(/C=C/c3ccccn3)n[nH]c2c1 [Example 41(o)] has concentration at 7 h that meets 20 ng/mL or exceeds it?
condition met

For this compound, is measured concentration at 7 h 20 ng/mL or higher? Cc1cc(C(=O)Nc2cccc(Oc3ccc4c(/C=C/c5ccccn5)n[nH]c4c3)c2)nn1C [Example 31(b)]
condition not met

Does Cn1cccc1C(=O)NNC(=O)c1ccccc1Sc1ccc2c(/C=C/c3ccccn3)n[nH]c2c1 [Example 35(e)] have a reported concentration at 7 h of at least 20 ng/mL?
condition not met

Has CCNC(=O)c1ccccc1Sc1ccc2c(/C=C/c3ccccn3)n[nH]c2c1 [Example 35(x)] a recorded concentration at 7 h greater than or equal to 20 ng/mL?
condition not met

concentration at 7 h >= 20 ng/mL for CCOCCNC(=O)c1ccccc1Sc1ccc2c(/C=C/c3ccccn3)n[nH]c2c1 [Example 35(z)] ?
condition not met
